- target_or_system: MCH receptor (Homo sapiens, UniProt Q99705)
- assay: High throughput functional screening FLIPR/FDSS6000: inhibition of MCH-evoked intracellular Ca2+ changes
- Type: cell-based
- condition_summary: class by percent of control at 10^−7 M or by IC50; read-out: class
pIC50: −log10 of the molar value.
The reader will find reported pIC50 values listed item by item below.

Worked examples, 2 molecules total:
QUERY: Report pIC50 for CN(C)c1nc(N[C@H]2CC[C@@H](NC(=O)c3ccc(Oc4ccccc4Br)nc3)CC2)nc2ccccc12 please.
RESULT: < 6.70

QUERY: Report pIC50 for CN(C)c1nc(N[C@H]2CC[C@@H](C(=O)NCc3ccccc3Br)CC2)nc2cc(F)c(F)cc12 please.
RESULT: > 7.30

***
QUERY: Report pIC50 for CN(C)c1nc(N[C@H]2CC[C@@H](C(=O)NCc3cccc4ccccc34)CC2)nc2ccccc12 please.
RESULT: > 7.30

* * *

- target_or_system: UniProt Q99705
- assay: High throughput functional screening FLIPR/FDSS6000: inhibition of MCH-evoked intracellular Ca2+ changes
- Assay type: cell-based
- condition_summary: class by percent of control at 10^-7 M or by IC50; read-out: class
experimental_readout: IC50

Worked examples, 2 compounds total:
QUERY: Report IC50 for CN(C)c1nc(N[C@H]2CC[C@@H](CNC(=S)NCCCN3CCOCC3)CC2)nc2ccccc12 please.
RESULT: > 0.2 µM

QUERY: Report IC50 for CN(C)c1nc(N[C@H]2CC[C@@H](NC(=S)Nc3cccc(Cl)c3)CC2)nc2ccccc12 please.
RESULT: > 0.2 µM

***
QUERY: Report IC50 for CC(C)c1ccccc1NC(=O)N[C@H]1CC[C@@H](Nc2nc(N(C)C)c3ccccc3n2)CC1 please.
RESULT: < 0.05 µM

* * *

The reader will find reported IC50 values listed item by item below.
- target_or_system: MCH receptor (Homo sapiens, UniProt Q99705)
- assay: High throughput functional screening FLIPR/FDSS6000: inhibition of MCH-evoked intracellular Ca2+ changes
- Type: cell-based
- condition_summary: class by percent of control at 10^−7 M or by IC50; read-out: class
- Text: Subsequently, a functional based assay was used to confirm the lead hits, referred to as FLIPR™ (the Fluorometric Imaging Plate Reader) and FDSS6000™ (Functional Drug Screening System). […] Fluorometric Imaging Plate Reader system was used to allow for rapid, kinetic measurements of intracellular fluorescence in 96 well microplates (or 384 well microplates). Simultaneous measurements of fluorescence in all wells can be made by FLIPR or FDSS6000™ every second with high sensitivity and precision. […]

Worked examples, 5 compounds total:
QUERY: Report IC50 for COc1ccc(NC(=O)NC[C@H]2CC[C@@H](Nc3nc(N(C)C)c4ccccc4n3)CC2)c(OC)c1 please.
RESULT: 50 to 200 nM

QUERY: Report IC50 for Cc1ccc([C@H](C)NC(=O)[C@H]2CC[C@@H](Nc3nc(N(C)C)c4cc(F)c(F)cc4n3)CC2)cc1 please.
RESULT: < 50 nM

QUERY: Report IC50 for CN(C)c1nc(N[C@H]2CC[C@@H](C(=O)NCc3ccc(C(F)(F)F)cc3)CC2)nc2ccccc12 please.
RESULT: < 50 nM

QUERY: Report IC50 for CN(C)c1nc(N[C@H]2CC[C@@H](NC(=O)c3cccnc3Oc3cccc(OC(F)(F)F)c3)CC2)nc2ccccc12 please.
RESULT: < 50 nM

QUERY: Report IC50 for CN(C)c1nc(N[C@H]2CC[C@@H](C(=O)NCc3ccc(F)c(Br)c3)CC2)nc2ccccc12 please.
RESULT: < 50 nM

***
QUERY: Report IC50 for CN(C)c1nc(N[C@H]2CC[C@@H](NC(=O)c3ccc(Oc4cccc(C(F)(F)F)c4)nc3)CC2)nc2ccccc12 please.
RESULT: < 50 nM

QUERY: Report IC50 for CN(C)c1nc(N[C@H]2CC[C@@H](NC(=O)C(O)c3ccc(Br)cc3)CC2)nc2ccccc12 (relative stereo) please.
RESULT: 50 to 200 nM

* * *

- target_or_system: MCH receptor (Homo sapiens, UniProt Q99705)
- assay: High throughput functional screening FLIPR/FDSS6000: inhibition of MCH-evoked intracellular Ca2+ changes
- Assay type: cell-based
- condition_summary: class by percent of control at 10^-7 M or by IC50; read-out: class
- Description: Subsequently, a functional based assay was used to confirm the lead hits, referred to as FLIPR™ (the Fluorometric Imaging Plate Reader) and FDSS6000™ (Functional Drug Screening System). […] Fluorometric Imaging Plate Reader system was used to allow for rapid, kinetic measurements of intracellular fluorescence in 96 well microplates (or 384 well microplates). Simultaneous measurements of fluorescence in all wells can be made by FLIPR or FDSS6000™ every second with high sensitivity and precision. […]
pIC50: −log10 of the molar value.
The reader will find reported pIC50 values listed item by item below.

QUERY: Report pIC50 for CN(C)c1nc(N[C@H]2CC[C@@H](NC(=O)Nc3cc(F)cc(F)c3)CC2)nc2ccccc12 please.
RESULT: 6.70 to 7.30

QUERY: Report pIC50 for Cc1cccc(C(C)(C)C)c1NC(=O)N[C@H]1CC[C@@H](Nc2nc(N(C)C)c3ccccc3n2)CC1 please.
RESULT: > 7.30

* * *

- target_or_system: MCH receptor (Homo sapiens)
- assay: High throughput functional screening FLIPR/FDSS6000: inhibition of MCH-evoked intracellular Ca2+ changes
- Format: cell-based
- condition_summary: class by percent of control at 10^-7 M or by IC50; read-out: class
experimental_readout: IC50

Worked examples, 10 compounds total:
QUERY: Report IC50 for CN(C)c1nc(N[C@H]2CC[C@@H](NC(=O)Nc3ccc(F)cc3F)CC2)nc2ccccc12 [compound 21] please.
RESULT: < 50 nM

QUERY: Report IC50 for CN(C)c1nc(N[C@H]2CC[C@@H](NC(=S)NCc3ccccc3)CC2)nc2ccccc12 [compound 156] please.
RESULT: > 200 nM

QUERY: Report IC50 for CN(C)c1nc(N[C@H]2CC[C@@H](NC(=S)Nc3ccc(F)cc3)CC2)nc2ccccc12 [compound 175] please.
RESULT: 50 to 200 nM

QUERY: Report IC50 for CN(C)c1nc(N[C@H]2CC[C@@H](NC(=O)Nc3c(Cl)c(Cl)cc(Cl)c3Cl)CC2)nc2ccccc12 [compound 72] please.
RESULT: < 50 nM

QUERY: Report IC50 for COc1cccc(NC(=O)N[C@H]2CC[C@@H](Nc3nc(N(C)C)c4ccccc4n3)CC2)c1 [compound 46] please.
RESULT: 50 to 200 nM

QUERY: Report IC50 for CN(C)c1nc(N[C@H]2CC[C@@H](NC(=O)NC3CCCCC3)CC2)nc2ccccc12 [compound 16] please.
RESULT: 50 to 200 nM

QUERY: Report IC50 for COC(=O)c1sccc1NC(=S)NC[C@H]1CC[C@@H](Nc2nc(N(C)C)c3ccccc3n2)CC1 [compound 802] please.
RESULT: > 200 nM

QUERY: Report IC50 for COC(=O)N[C@H]1CC[C@@H](Nc2nc(N(C)C)c3ccccc3n2)CC1 [compound 862] please.
RESULT: > 200 nM

QUERY: Report IC50 for CN(C)c1nc(N[C@H]2CC[C@@H](NC(=S)NCc3ccco3)CC2)nc2ccccc12 [compound 174] please.
RESULT: > 200 nM

QUERY: Report IC50 for CN(C)c1nc(N[C@H]2CC[C@@H](NC(=O)NCc3ccccc3Cl)CC2)nc2ccccc12 [compound 91] please.
RESULT: < 50 nM

***
QUERY: Report IC50 for CN(C)c1nc(N[C@H]2CC[C@@H](NC(=O)Oc3ccc4ccccc4c3)CC2)nc2ccccc12 [compound 856] please.
RESULT: > 200 nM

QUERY: Report IC50 for CN(C)c1nc(N[C@H]2CC[C@@H](NC(=O)Nc3ccc(C(F)(F)F)cc3)CC2)nc2ccccc12 [compound 136] please.
RESULT: > 200 nM

QUERY: Report IC50 for Cc1cc(C)cc(NC(=O)N[C@H]2CC[C@@H](Nc3nc(N(C)C)c4ccccc4n3)CC2)c1 [compound 127] please.
RESULT: 50 to 200 nM

QUERY: Report IC50 for CCc1cccc(C(C)C)c1NC(=S)N[C@H]1CC[C@@H](Nc2nc(N(C)C)c3ccccc3n2)CC1 [compound 173] please.
RESULT: < 50 nM

QUERY: Report IC50 for CN(C)c1nc(N[C@H]2CC[C@@H](NC(=O)Nc3cc(F)cc(C(F)(F)F)c3)CC2)nc2ccccc12 [compound 133] please.
RESULT: > 200 nM
